Just for reference, ChEMBL document CHEMBL1961873 is where these values come from.

Biological target: Casein kinase I isoform gamma-1 (Homo sapiens) (UniProt Q9HCP0);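 note: reported value is the mean inhibition of CK1 gamma-1 kinase activity across replicate measurements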
Sequence (Q9HCP0 whole entry, looked up, canonical isoform): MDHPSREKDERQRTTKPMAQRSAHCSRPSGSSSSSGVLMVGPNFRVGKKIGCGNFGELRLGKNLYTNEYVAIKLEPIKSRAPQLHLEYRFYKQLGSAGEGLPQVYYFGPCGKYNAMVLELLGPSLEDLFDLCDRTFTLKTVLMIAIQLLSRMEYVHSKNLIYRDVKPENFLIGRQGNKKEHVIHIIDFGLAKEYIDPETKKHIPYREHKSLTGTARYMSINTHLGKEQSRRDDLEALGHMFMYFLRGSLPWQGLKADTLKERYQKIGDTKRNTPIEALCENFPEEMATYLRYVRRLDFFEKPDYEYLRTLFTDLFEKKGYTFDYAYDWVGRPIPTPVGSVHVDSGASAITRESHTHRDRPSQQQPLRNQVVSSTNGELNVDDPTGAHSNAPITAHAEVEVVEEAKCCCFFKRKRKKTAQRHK
Conditions: at 1 µM
reported.endpoint: inhibition (%)
Give bare numbers, in %.

Examples from the recorded data:
                                   compound  endpoint_result
0  CS(=O)(=O)Nc1cccc(-c2ccc3c(NC(=O)C4CC4)n[nH]c3c2)c1             3.47
1  CCCN1CCCC(c2ccc(Nc3nc(Nc4cc(F)ccc4C(N)=O)c4cc[nH]c4n3)c(OC)c2)C1 (stereo not given)               78
2  CC(C)c1ccc(Nc2nccc(-c3cnn4ncccc34)n2)cc1              8.9
3  Cc1cc(-c2ccccn2)cc(C)c1/C=C/c1cncc(-c2nn[nH]n2)c1             4.39

// next entry
INPUT: Report inhibition, nothing else, for this compound: COc1cc(/C=N/Nc2ncnc3c2cnn3C(C)C)ccc1O
OUTPUT: 3.2

* * *

Molecular target: Serine/threonine-protein kinase PAK 1 (Homo sapiens) (UniProt Q13153);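 note: reported values are mean percent inhibition of PAK1 activity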
Sequence (Q13153 whole entry): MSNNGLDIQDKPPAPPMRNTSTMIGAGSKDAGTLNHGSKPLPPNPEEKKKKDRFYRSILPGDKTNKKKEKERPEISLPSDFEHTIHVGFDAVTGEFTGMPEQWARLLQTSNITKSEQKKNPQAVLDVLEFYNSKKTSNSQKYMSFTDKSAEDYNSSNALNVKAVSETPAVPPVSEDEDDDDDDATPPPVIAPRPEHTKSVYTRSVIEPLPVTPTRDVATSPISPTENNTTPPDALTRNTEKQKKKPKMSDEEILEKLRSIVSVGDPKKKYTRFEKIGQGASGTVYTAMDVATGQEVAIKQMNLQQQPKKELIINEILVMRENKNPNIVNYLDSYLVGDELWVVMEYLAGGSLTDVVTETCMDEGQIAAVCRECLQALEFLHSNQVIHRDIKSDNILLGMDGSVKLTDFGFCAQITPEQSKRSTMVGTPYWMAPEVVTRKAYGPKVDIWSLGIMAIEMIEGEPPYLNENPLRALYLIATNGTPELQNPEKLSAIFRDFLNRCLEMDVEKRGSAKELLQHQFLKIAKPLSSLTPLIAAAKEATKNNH
Conditions: at 1 µM
reported.endpoint: inhibition (%)
Give bare numbers, in %.

Examples from the recorded data:
In [3]: df
Out[3]:
                               given_smiles  endpoint_result
0   Cc1nc(-c2ccccc2)n2nc(NCCCN3CCOCC3)ncc12             6.68
1  Oc1cccc(-c2nc(-c3ccccc3)[nH]c2-c2ccncc2)c1             6.51
2  CN(c1ccc(NC(=O)Nc2ccc(OC(F)(F)F)cc2)cc1)c1ccnc(Nc2cccc(S(N)(=O)=O)c2)n1            -0.37
3  O=S(=O)(CCOCc1ccc(-c2ccc3ncnc(Nc4ccc(OCc5cccc(F)c5)c(Cl)c4)c3c2)o1)c1ccccc1             5.84
4             CCOc1nccc2c1nc(-c1nonc1N)n2CC             2.07

Record inhibition per entry; entries follow.
1. Cc1ccc(C(=O)NC2CC2)cc1-c1ccc2[nH]ncc2c1
2. COc1cccc(-n2ncc3c(N/N=C/c4ccc(C)cc4)ncnc32)c1

OUTPUT:
-2.6
9.32

Record inhibition per entry; entries follow.
1. Cc1ccc2c(-c3ccnc(Nc4cccc(C(F)(F)F)c4)n3)c(-c3ccccc3)nn2n1
2. Nc1nccc(-c2c(-c3ccc(F)cc3)nn3cc(C(F)(F)F)ccc23)n1
3. NC(=O)c1cccc(Nc2nccc(Nc3cccc(F)c3)n2)c1

OUTPUT:
[8.06, 2.14, 2.79]

* * *

System: Epidermal growth factor receptor (Homo sapiens), P00533 [T790M]
Sequence (P00533 whole entry T790M): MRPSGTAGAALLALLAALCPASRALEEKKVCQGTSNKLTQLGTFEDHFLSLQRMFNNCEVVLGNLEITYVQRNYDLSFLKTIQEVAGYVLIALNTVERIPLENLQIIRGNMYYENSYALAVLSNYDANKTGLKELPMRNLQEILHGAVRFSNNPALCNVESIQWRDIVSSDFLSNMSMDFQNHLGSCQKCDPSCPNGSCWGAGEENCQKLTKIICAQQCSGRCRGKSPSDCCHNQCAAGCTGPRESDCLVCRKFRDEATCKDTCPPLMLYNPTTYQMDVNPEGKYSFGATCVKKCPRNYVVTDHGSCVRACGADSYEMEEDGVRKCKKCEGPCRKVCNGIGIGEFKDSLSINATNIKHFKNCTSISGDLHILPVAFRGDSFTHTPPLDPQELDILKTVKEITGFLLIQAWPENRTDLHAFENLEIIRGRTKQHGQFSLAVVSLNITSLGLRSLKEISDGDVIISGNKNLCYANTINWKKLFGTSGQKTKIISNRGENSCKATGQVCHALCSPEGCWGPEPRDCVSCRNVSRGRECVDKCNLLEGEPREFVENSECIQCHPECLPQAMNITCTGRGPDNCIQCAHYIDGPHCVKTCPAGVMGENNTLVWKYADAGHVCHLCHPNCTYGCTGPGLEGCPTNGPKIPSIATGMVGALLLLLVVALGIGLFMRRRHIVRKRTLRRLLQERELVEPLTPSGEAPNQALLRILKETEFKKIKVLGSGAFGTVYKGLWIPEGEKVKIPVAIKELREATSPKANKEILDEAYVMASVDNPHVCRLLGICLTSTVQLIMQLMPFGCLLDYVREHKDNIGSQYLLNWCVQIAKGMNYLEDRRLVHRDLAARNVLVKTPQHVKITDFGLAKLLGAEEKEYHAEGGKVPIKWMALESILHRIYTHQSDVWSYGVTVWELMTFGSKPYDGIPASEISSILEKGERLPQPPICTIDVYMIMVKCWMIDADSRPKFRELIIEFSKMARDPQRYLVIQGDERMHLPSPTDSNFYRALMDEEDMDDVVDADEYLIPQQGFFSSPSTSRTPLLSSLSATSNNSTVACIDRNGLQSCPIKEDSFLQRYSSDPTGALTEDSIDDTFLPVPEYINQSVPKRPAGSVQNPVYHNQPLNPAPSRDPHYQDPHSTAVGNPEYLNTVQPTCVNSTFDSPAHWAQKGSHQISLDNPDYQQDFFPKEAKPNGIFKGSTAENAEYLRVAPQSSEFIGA
Details: at 1 µM
reported.endpoint: inhibition (%)
One number for each entry, in %.

Examples from the recorded data:
>>> print(df.to_string())
                               given_smiles  endpoint_result
0  Cc1ccc(Nc2ccnc(Nc3cccc(C(N)=O)c3)n2)cc1O             14.9
1  CS(=O)(=O)CCNCc1nc(-c2ccc3ncnc(Nc4ccc(OCc5cccc(C(F)(F)F)c5)cc4)c3c2)cs1            -0.12

Record inhibition per entry; entries follow.
1. Cc1ccc2c(c1)/C(=N/Nc1ccc(S(N)(=O)=O)cc1)C(=O)N2
2. COc1cc(/C=N/Nc2ncnc3c2cnn3C(C)C)ccc1O
3. Cc1cc(-c2ccccn2)cc(C)c1/C=C/c1cncc(-c2nn[nH]n2)c1
4. O=S(=O)(CCOCc1ccc(-c2ccc3ncnc(Nc4ccc(OCc5cccc(F)c5)c(Cl)c4)c3c2)o1)c1ccccc1
5. CN(C)CCCn1c(-c2nonc2N)nc2cnccc21
6. Cc1ccc(NC(=O)CC2CC2)cc1-c1ccc(C(=O)NCC2CC2)cc1
7. COC(=O)Nc1nc2cc(Oc3ccc(NC(=O)Nc4cccc(Br)c4)cc3)ccc2[nH]1

OUTPUT:
[-3, 0.47, 1.45, 2.25, 4.68, 2.09, 2.61]

INPUT: Report inhibition, nothing else, for this compound: CCOc1nccc2c1nc(-c1nonc1N)n2CC
OUTPUT: 5.62

* * *

Biological target: Tyrosine-protein kinase Lyn (Homo sapiens) (UniProt P07948);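 note: kinase tested as its LYN B splice variant, values given as mean percent inhibition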
Sequence (P07948 2-512 limits assumed): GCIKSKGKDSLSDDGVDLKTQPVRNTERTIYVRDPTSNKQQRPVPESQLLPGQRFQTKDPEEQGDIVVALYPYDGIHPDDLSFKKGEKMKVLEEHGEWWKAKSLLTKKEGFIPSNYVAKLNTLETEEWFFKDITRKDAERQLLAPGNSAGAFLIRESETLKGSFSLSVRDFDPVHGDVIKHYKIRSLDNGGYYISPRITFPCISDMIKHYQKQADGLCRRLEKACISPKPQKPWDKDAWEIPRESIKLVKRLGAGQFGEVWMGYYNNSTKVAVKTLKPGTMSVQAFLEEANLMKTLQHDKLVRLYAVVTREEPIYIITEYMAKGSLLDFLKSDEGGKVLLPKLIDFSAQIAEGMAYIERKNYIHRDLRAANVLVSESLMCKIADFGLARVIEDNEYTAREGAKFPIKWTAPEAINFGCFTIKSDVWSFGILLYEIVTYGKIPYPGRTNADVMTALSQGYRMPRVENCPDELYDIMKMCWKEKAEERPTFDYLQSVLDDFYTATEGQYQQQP
Details: at 1 µM
Description: GSK_PKIS: LYN B (splice variant) mean inhibition at 1 uM [Nanosyn]
reported.endpoint: inhibition (%)
Give bare numbers, in %.

Examples from the recorded data:
>>> df
                               given_smiles                             target_system  unit_symbol  endpoint_result
0  COc1cccc(-n2ncc3c(N/N=C/c4ccc(S(C)(=O)=O)cc4)ncnc32)c1  Tyrosine-protein kinase Lyn (Homo sapiens) (UniProt P07948)            %             73.3
1  Cc1ccc2c(-c3ccnc(Nc4cccc(C(F)(F)F)c4)n3)c(-c3ccccc3)nn2n1  Tyrosine-protein kinase Lyn (Homo sapiens) (UniProt P07948)            %             47.8
2  CS(=O)(=O)Nc1cccc(-c2ccc3c(NC(=O)C4CC4)n[nH]c3c2)c1  Tyrosine-protein kinase Lyn (Homo sapiens) (UniProt P07948)            %            -0.21

Record inhibition per entry; entries follow.
1. COc1cc2ncn(-c3cc(OCc4ccccc4S(C)(=O)=O)c(C#N)s3)c2cc1OC
2. COc1cccc(-n2ncc3c(N/N=C/c4ccc(C)cc4)ncnc32)c1
3. ON=C1CCc2cc(-c3nc(C4CCNCC4)[nH]c3-c3ccncc3)ccc21
4. OCc1ccc(-c2nc(-c3ccccn3)c(-c3ccc4c(c3)OCO4)[nH]2)cc1
5. O=S(=O)(CCOCc1ccc(-c2ccc3ncnc(Nc4ccc(OCc5cccc(F)c5)c(Cl)c4)c3c2)o1)c1ccccc1
6. Cc1ccc(C(=O)NC2CC2)cc1-c1ccc2[nH]ncc2c1

OUTPUT:
60.9
18.6
0.99
3.31
-0.4
-0.48

* * *

Target: Serine/threonine-protein kinase MRCK alpha (Homo sapiens);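 note: each inhibition figure is a mean value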
Conditions: at 0.1 µM
reported.endpoint: inhibition (%)
Answers are plain numbers, in %.

Examples from the recorded data:
                               given_smiles                             target_system  unit_symbol  endpoint_result
0  Cc1cc(-c2ccccn2)cc(C)c1/C=C/c1cncc(-c2nn[nH]n2)c1  Serine/threonine-protein kinase MRCK alpha (Homo sapiens)            %             2.46
1  c1ccc(Cc2nc3ccc(Nc4ncnc5ccccc45)cc3[nH]2)cc1  Serine/threonine-protein kinase MRCK alpha (Homo sapiens)            %            -0.57
2   COc1ccc2ncnc(Nc3ccc(OCc4ccccc4)cc3)c2c1  Serine/threonine-protein kinase MRCK alpha (Homo sapiens)            %             0.54
3             CCOc1nccc2c1nc(-c1nonc1N)n2CC  Serine/threonine-protein kinase MRCK alpha (Homo sapiens)            %             2.25
4  Nc1nccc(-c2c(-c3ccc(F)cc3)ncn2CCCN2CCOCC2)n1  Serine/threonine-protein kinase MRCK alpha (Homo sapiens)            %             0.42

Record inhibition per entry; entries follow.
1. N#Cc1c(NC(=O)c2ccccc2F)sc2c1CCCC2
2. CN(C)c1cc2c(Nc3ccc4c(cnn4Cc4ccccc4)c3)ncnc2cn1
3. Nc1nccc(C#Cc2cncnc2Nc2ccc(OCc3cccc(F)c3)c(Cl)c2)n1
4. Nc1ccc(C#Cc2cncnc2Nc2ccc(OCc3cccc(F)c3)c(Cl)c2)cc1
5. OCc1ccc(-c2nc(-c3ccccn3)c(-c3ccc4c(c3)OCO4)[nH]2)cc1
6. CCn1c(-c2nonc2N)nc2ccc(F)cc21
7. COc1cccc(-n2ncc3c(N/N=C/c4ccc(C)cc4)ncnc32)c1

OUTPUT:
1. 1.07
2. -0.16
3. 0.06
4. -1.73
5. 0.27
6. -0.42
7. 4.17

* * *

Target: Glycogen synthase kinase-3 alpha (Homo sapiens) (UniProt P49840);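 note: each figure is a mean percent inhibition of GSK3A activity, from a screen of the GSK published kinase inhibitor set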
Sequence (P49840 2-483 limits assumed): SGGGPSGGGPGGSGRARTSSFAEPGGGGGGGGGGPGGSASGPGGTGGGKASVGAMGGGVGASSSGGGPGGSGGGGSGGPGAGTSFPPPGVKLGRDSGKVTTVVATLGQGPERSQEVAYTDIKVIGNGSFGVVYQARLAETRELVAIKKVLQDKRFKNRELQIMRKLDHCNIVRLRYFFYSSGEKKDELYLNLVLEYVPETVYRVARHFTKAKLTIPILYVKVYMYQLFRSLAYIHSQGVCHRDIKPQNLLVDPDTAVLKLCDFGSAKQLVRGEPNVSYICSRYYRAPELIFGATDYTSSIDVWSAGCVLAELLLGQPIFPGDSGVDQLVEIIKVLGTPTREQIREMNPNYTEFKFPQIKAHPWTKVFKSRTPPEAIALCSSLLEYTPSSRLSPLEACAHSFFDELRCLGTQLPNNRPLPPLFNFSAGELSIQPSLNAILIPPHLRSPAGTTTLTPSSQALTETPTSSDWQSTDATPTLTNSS
Conditions: at 1 µM
Consider the following molecules; for each one, report its inhibition.
One number for each entry, in %.

Examples from the recorded data:
In [3]: df
Out[3]:
                               given_smiles  reported_endpoint  unit_symbol  endpoint_result
0   Cc1nc(-c2ccccc2)n2nc(NCCCN3CCOCC3)ncc12         inhibition            %             13.1
1  COC(=O)c1ccc2c(c1)C(=Cc1cc(Br)c(O)c(Br)c1)C(=O)N2         inhibition            %             42.9
2          CN(C)CCCn1c(-c2nonc2N)nc2cnccc21         inhibition            %             15.1
3             c1ccc(Nc2ncc(-c3ccccc3)o2)cc1         inhibition            %             15.8
4  OCc1ccc(-c2nc(-c3ccccn3)c(-c3ccc4c(c3)OCO4)[nH]2)cc1         inhibition            %              4.5

Record inhibition per entry; entries follow.
1. NS(=O)(=O)c1cccc(Nc2cc(-c3ccc(F)cc3)n[nH]2)c1
2. C[C@@H](Oc1cc(-n2cnc3ccc(OCC4CCN(C)CC4)cc32)sc1C(N)=O)c1ccccc1C(F)(F)F
3. CCS(=O)(=O)c1ccc(OC)c(Nc2nccc(N(C)c3ccc4c(C)n[nH]c4c3)n2)c1

OUTPUT:
1: 7.78; 2: 2.65; 3: 3.41

Record inhibition per entry; entries follow.
1. Cc1ccc(NC(=O)CC2CC2)cc1-c1ccc(C(=O)NCC2CC2)cc1
2. CS(=O)(=O)CCNCc1nc(-c2ccc3ncnc(Nc4ccc(OCc5cccc(C(F)(F)F)c5)cc4)c3c2)cs1
3. Cc1cc(O)cc(C)c1/C=C/c1cncc(C(=O)N(C)C)c1
4. CN1CCN(C(=O)c2ccc(NC(=O)Nc3ccc(N(C)c4ccnc(Nc5ccc(CS(C)(=O)=O)cc5)n4)cc3)cc2)CC1
5. COc1cccc(-n2ncc3c(N/N=C/c4ccc(C)cc4)ncnc32)c1
6. CN(C)C(=O)O[C@H]1CN[C@H](C#Cc2cc3ncnc(Nc4ccc(OCc5cccc(F)c5)c(Cl)c4)c3s2)C1

OUTPUT:
2.3
4.93
10.2
4.98
55.6
5.51

Record inhibition per entry; entries follow.
1. Cc1cc(Cl)cc2c1NC(=O)C2=NNc1ccc(S(N)(=O)=O)cc1
2. Cc1ccc2c(-c3ccnc(Nc4ccc5c(c4)OCCO5)n3)c(-c3ccc(C(F)(F)F)cc3)nn2n1

OUTPUT:
[6.57, 10.5]

Record inhibition per entry; entries follow.
1. NC(=O)c1sc(-n2cnc3ccccc32)cc1OCc1ccccc1Br
2. NS(=O)(=O)c1ccc(N/N=C2\C(=O)Nc3ccc(Cl)cc32)cc1
3. COc1ccc2ncnc(Nc3ccc(OCc4ccccc4)cc3)c2c1
4. COc1cc2ncnc(Nc3ccc(C)c(O)c3)c2cc1OC
5. COc1cc(/C=N/Nc2ncnc3c2cnn3C(C)C)ccc1O
6. NS(=O)(=O)c1ccc(NC=C2C(=O)Nc3ccc4ncsc4c32)cc1
7. Oc1cccc(-c2nc(-c3ccccc3)[nH]c2-c2ccncc2)c1
8. C[C@@H](Oc1cc(-n2cnc3ccc(OC[C@@H](O)CO)cc32)sc1C(N)=O)c1ccccc1Cl

OUTPUT:
1. 11.9
2. 61.2
3. 4.44
4. 8.57
5. 37.4
6. 70.9
7. 14.8
8. 3.84
